Value source: patent US20260327294

Recorded pKd by entry
Biological target: RSV A2 pre-F (RSV A2)
Test: BLI
pKd: −log10 of the molar value.

binder	pKd
F6-61 (antibody, V domains shown) VH: QVTLRQSGPALVKPTQTLTLTCTFSGFSLSTRGMCVNWIRQPPGKALEWLARIDWDDDKYYTTSLKTRLTISKDTAKNHVVLSMTNMDPVDTATYYCARIRCYDYVWGDDEVFDIWGQGTMVSVSS VL: QSVLTQPPSASGTPGQSVTISCSGSTSNIGSNNVNWYQQLPGAAPKLVIHTNDQRPSRVPDRFSGSTSGTSASLAISGLQSEDEADYYCAAWDDSLNGLLFGGGTKLTVL	8.49
F6-210 (antibody, V domains shown) VH: QERLAQSGTEVKKPGASVKVSCRALGYTFSDYSIHWVRQAPRQGLEWMGKINTSGGTTTYAQKFQARVTLTSDTSTSTASMELSSLKIEDTAVYYCVAYERATTLAGAGASDIWGQGTLVTVSS VL: DIVMTQSPLSLPVTPGEPASISCRSSQSLLHSDGYNYLDWYLQKPGQSPHLLIYLGSNRASGVPDRFSGSGSGTDFTLKITRVEPEDVGVYYCMQSLQTPFTFGPGTKVDVK	9.97
